Tested on: rodent lifetime carcinogenesis bioassay, tumor incidence TD50
EXPERIMENTAL PROTOCOL: carcinogenic potency in animals, long-term in vivo studies, CPDB compilation (AID 1745844)
ASSAY CONDITIONS: mouse; strain B6C3F1; females; by gavage; site: all sites; lesion: hemangiosarcoma; dosed 103 weeks; study length 104 weeks
PROPERTY: TD50

Sample O=C1CCc2ccccc2O1 — what was its TD50?
6140 mg/kg/day

====

Would you mind telling me the reported TD50 of each entry?
Test system: rodent lifetime carcinogenesis bioassay, tumor incidence TD50
EXPERIMENTAL PROTOCOL: carcinogenic potency in animals, long-term in vivo studies, CPDB compilation (AID 1745844)
ASSAY CONDITIONS: mouse; strain B6C3F1; females; oral dosing; site: lung; lesion: adenoma; dosed 76 weeks; study length 76 weeks
Activity calls are given as the source filed them. No rule for the calls is given here.

Sample S=C(SSSSSSC(=S)N1CCCCC1)N1CCCCC1 — what was its TD50?
83.1 mg/kg/day (inactive)

Sample CCN(CC)C(=S)SSC(=S)N(CC)CC — what was its TD50?
283 mg/kg/day

Sample CCN(CC)C(=S)[S-].CCN(CC)C(=S)[S-].[Cd+2] — what was its TD50?
57.4 mg/kg/day (inactive)

Sample O=S(=O)(Oc1ccc(Cl)cc1Cl)c1ccccc1 — what was its TD50?
1920 mg/kg/day (inactive)

Sample CC(C)CCCCCOC(=O)COc1ccc(Cl)cc1Cl — what was its TD50?
34 mg/kg/day (inactive)

Sample Clc1ccc(C(c2ccc(Cl)cc2)C(Cl)Cl)cc1 — what was its TD50?
250 mg/kg/day

Sample CCCCN(CCCC)C(=S)[S-].CCCCN(CCCC)C(=S)[S-].[Ni+2] — what was its TD50?
0.174 mg/kg/day (inactive)

Sample CC(C)OC(=O)COc1ccc(Cl)cc1Cl — what was its TD50?
100 mg/kg/day (inactive)

Sample ClC1=C(Cl)C2(Cl)C3C(Cl)OC(Cl)C3C1(Cl)C2(Cl)Cl (stereo not drawn) — what was its TD50?
0.571 mg/kg/day (inactive)

Sample COC(C(=O)O)c1ccccc1 (stereo not drawn) — what was its TD50?
244 mg/kg/day (inactive)

Sample CN(C)C(=O)NC1CC2CC1C1CCCC21 (stereo not drawn) — what was its TD50?
1230 mg/kg/day (inactive)

Sample NC(=O)Cc1cccc2ccccc12 — what was its TD50?
461 mg/kg/day (inactive)

Sample CCN(CC)C(=S)S[Te](SC(=S)N(CC)CC)(SC(=S)N(CC)CC)SC(=S)N(CC)CC — what was its TD50?
131 mg/kg/day

Sample O=C(O)Cc1c[nH]c2ccccc12 — what was its TD50?
538 mg/kg/day (inactive)

Sample CCCCN(CC)C(=O)SCCC — what was its TD50?
267 mg/kg/day (inactive)

Sample Cc1cc(O)cc(C)c1N(C)C — what was its TD50?
265 mg/kg/day (inactive)

Sample S=c1[nH]c2ccccc2s1 — what was its TD50?
283 mg/kg/day (inactive)

Sample c1ccc2sc(SSc3nc4ccccc4s3)nc2c1 — what was its TD50?
669 mg/kg/day (inactive)

Sample c1ccc2sc(SN3CCOCC3)nc2c1 — what was its TD50?
598 mg/kg/day (inactive)

Sample CC(=O)[O][Sn]([c]1ccccc1)([c]1ccccc1)[c]1ccccc1 — what was its TD50?
440 mg/kg/day (inactive)

Sample CCCCN(CCCC)C(=S)[S-].CCCCN(CCCC)C(=S)[S-].[Zn+2] — what was its TD50?
2330 mg/kg/day (inactive)

Sample CN(C)C(=O)Nc1ccc(Cl)c(Cl)c1 — what was its TD50?
600 mg/kg/day (inactive)

Sample S=C([S-])NCCNC(=S)[S-].[Zn+2] — what was its TD50?
1150 mg/kg/day (inactive)
